EXPERIMENTAL SYSTEM: T1, CRBN, Q96SW2;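 also: pooled lentiviral library of zinc finger degron-EGFP fusions in mCherry-positive Jurkat cells, FACS-sorted after compound exposure, with degron abundance counted by next-generation sequencing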
T1 chain: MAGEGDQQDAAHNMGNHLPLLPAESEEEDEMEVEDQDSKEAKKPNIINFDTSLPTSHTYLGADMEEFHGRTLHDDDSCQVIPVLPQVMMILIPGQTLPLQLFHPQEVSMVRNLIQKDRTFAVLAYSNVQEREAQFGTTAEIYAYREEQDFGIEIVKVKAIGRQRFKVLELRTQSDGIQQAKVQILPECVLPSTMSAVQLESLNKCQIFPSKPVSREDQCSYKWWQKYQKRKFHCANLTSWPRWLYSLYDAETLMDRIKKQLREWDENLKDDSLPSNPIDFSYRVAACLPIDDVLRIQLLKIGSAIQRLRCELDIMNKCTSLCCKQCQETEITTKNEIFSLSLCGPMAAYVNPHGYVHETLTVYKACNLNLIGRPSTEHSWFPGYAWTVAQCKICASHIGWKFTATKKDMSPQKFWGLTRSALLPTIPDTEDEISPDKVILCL
PROTOCOL TEXT: log2 fold change of degron read counts, EGFP-low vs EGFP+ sorted cells (limma voom), compound-induced degradation; higher = more compound-induced degradation of the degron-EGFP fusion; degrons are variants of IKZF1/3 zinc finger 2; compound dose not given here
MEASUREMENT PARAMETERS: Jurkat; 18 h; compound: compound 19 (5-tert-butyl-thalidomide)
In all, about 8,300 sequences were measured (“log2 fold change of degron read counts, EGFP-low vs EGFP+ sorted cells (limma voom), compound-induced degradation”: median about -1.1, highest 2% from about 3.2 on). This is one part of a sample in which the highest values are shown more often than they occur.
REPORTED ENDPOINT: log2 fold change of degron read counts

{"SEQUENCE CHAIN": "LTCPICGFACTQKGNLLRHIKL [46L_47T_49P_50I_52G_53F_54A_55C_67L_, Q9UKT9]", "MEAS VALUE": 2.49}
{"SEQUENCE CHAIN": "LDCPICGFACTQKGNLLRHIKL [46L_47D_49P_50I_52G_53F_54A_55C_67L_, Q9UKT9]", "MEAS VALUE": 0.373}
{"SEQUENCE CHAIN": "LVCEICGFGCTQKGNLLRHIKL [46L_47V_49E_50I_52G_53F_54G_55C_67L_, Q9UKT9]", "MEAS VALUE": 1.26}
{"SEQUENCE CHAIN": "LCCPICGFACTQKGNLLRHIKL [46L_47C_49P_50I_52G_53F_54A_55C_67L_, Q9UKT9]", "MEAS VALUE": 2.49}
{"SEQUENCE CHAIN": "LSCNQCGFVCTQKGNLLRHIKL [46L_47S_49N_50Q_52G_53F_54V_55C_67L_, Q9UKT9]", "MEAS VALUE": -2.24}
{"SEQUENCE CHAIN": "LECPICGFACTQKGNLLRHIKL [46L_47E_49P_50I_52G_53F_54A_55C_67L_, Q9UKT9]", "MEAS VALUE": 1.75}
{"SEQUENCE CHAIN": "LFCPICGFACTQKGNLLRHIKL [46L_47F_49P_50I_52G_53F_54A_55C_67L_, Q9UKT9]", "MEAS VALUE": 3.05}

Cited source for all entries: the supplement of paper PMC12645437
